Read-out: Keratin 19 (KRT19), KRT19 (gene 3880)
ASSAY: LTEA_HepaRG_KRT19: Life Technologies and Expression Analysis (LTEA) Assay for Keratin 19 (KRT19) using HepaRG (AID 2283512)
CONDITION: mRNA level, 48 h; actives raise or lower the signal
Activity calls are given as the source filed them. The calls were made as follows: active = hit-call score of the fitted dose curve at least 0.9, where 1 is the maximum; inactive = score below 0.9.
Labels: active, inactive

| COMPOUND | QUALITATIVE LABEL |
| --- | --- |
| COc1ccc(C(=CC(=O)N2CCOCC2)c2ccc(Cl)cc2)cc1OC | inactive |
| COP(=O)(OC)C(O)C(Cl)(Cl)Cl (stereo unspecified) | inactive |
| CON=C(C(=O)OC)c1ccccc1CON=C(C)c1cccc(C(F)(F)F)c1 | inactive |
| CCc1cccc(CC)c1N(COC)C(=O)CCl | inactive |
| CC(=NC#N)N(C)Cc1ccc(Cl)nc1 | inactive |
| C#CC(C)(C)NC(=O)c1cc(Cl)cc(Cl)c1 | active |
| CC(C)=CC1C(C(=O)OCN2C(=O)C3=C(CCCC3)C2=O)C1(C)C (stereo unspecified) | inactive |
| N#CSCSC#N | active |
| CCOP(=O)(OCC)Oc1cc(C)nc(C(C)C)n1 | inactive |
| CCCOc1nn(C(=O)NS(=O)(=O)c2ccccc2C(=O)OC)c(=O)n1C | inactive |
| CN(C)C(=O)Nc1cccc(C(F)(F)F)c1 | inactive |
| COP(=O)(OC)SCn1c(=O)oc2cc(Cl)cnc21 | inactive |
| C#CCC1=C(C)C(OC(=O)C2C(C=C(C)C)C2(C)C)CC1=O (stereo unspecified) | inactive |
| CNC(=O)ON=C(C)SC | inactive |
| C=C(C)[C@H]1Cc2c(ccc3c2O[C@@H]2COc4cc(OC)c(OC)cc4[C@@H]2C3=O)O1 | active |
| CCOP(=O)(SC(C)CC)N1CCSC1=O (stereo unspecified) | inactive |
| CC(Oc1cccc(Cl)c1)C(=O)O (stereo unspecified) | inactive |
| CCOP(=S)(OCC)Oc1cc(C)nc(C(C)C)n1 | inactive |
| CCOP(=S)(Oc1cnc(C(C)(C)C)nc1)OC(C)C (stereo unspecified) | inactive |
| CC1(C(=O)Nc2ccc(O)c(Cl)c2Cl)CCCCC1 | inactive |
| S=C1NCCN1 | inactive |
| COP(=O)(NC(C)=O)SC (stereo unspecified) | inactive |
| CCCCOC(=O)c1ccccc1C(=O)O | inactive |
| CCOP(=S)(OCC)SCCSCC | inactive |
| CCCCSP(=O)(SCCCC)SCCCC | active |
| Nc1c(Cl)cc([N+](=O)[O-])cc1Cl | active |
| CCCCN(CC)c1c([N+](=O)[O-])cc(C(F)(F)F)cc1[N+](=O)[O-] | inactive |
| CC[C@H](C)[C@H]1O[C@]2(C=C[C@@H]1C)C[C@@H]1C[C@@H](C/C=C(\C)[C@@H](O[C@H]3C[C@H](OC)[C@@H](O[C@H]4C[C@H](OC)[C@@H](NC)[C@H](C)O4)[C@H](C)O3)[C@@H](C)/C=C/C=C3\CO[C@@H]4[C@H](O)C(C)=C[C@@H](C(=O)O1)[C@]34O)O2 | inactive |
| CCCCOC(=O)[C@@H](C)Oc1ccc(Oc2ccc(C#N)cc2F)cc1 | inactive |
| CC(C1CC1)C(O)(Cn1cncn1)c1ccc(Cl)cc1 (stereo unspecified) | inactive |
| CCC(=NOC/C=C/Cl)C1=C(O)CC(C2CCOCC2)CC1=O (stereo unspecified) | inactive |
| Cc1cc(C2CC2)nc(Nc2ccccc2)n1 | active |
| CCOP(=S)(OCC)Oc1ccc([N+](=O)[O-])cc1 | inactive |
| CC(C)[C@H](C(=O)O[C@H](C#N)c1cccc(Oc2ccccc2)c1)c1ccc(Cl)cc1 | inactive |
| CCc1cccc(C)c1N(C(=O)CCl)C(C)COC (stereo unspecified) | inactive |
| CC1=NNC(=O)N(/N=C/c2cccnc2)C1 | inactive |
| CCOP(=S)(OCC)Oc1ccc2c(C)c(Cl)c(=O)oc2c1 | active |
| CC(C)N(C(=O)SCC(Cl)=C(Cl)Cl)C(C)C | inactive |
| O=C(O)c1cc(Oc2ccc(C(F)(F)F)cc2Cl)ccc1[N+](=O)[O-] | inactive |
| CNC(=O)Oc1cccc2c1OC(C)(C)O2 | inactive |
| CNc1cnn(-c2cccc(C(F)(F)F)c2)c(=O)c1Cl | active |

Values were extracted from PubChem BioAssay (EPA / NIEHS).
